test: gradient 5% acetonitrile 3 min, to 50% in 2 min, to 85% in 15 min, held 3 min, 100 µL/min; details: column: Zorbax Extend-C18 2.1 x 50 mm; eluents: water / acetonitrile, 0.1% formic acid
# RP-LC retention time per entry

[
  {
    "Compound": "CO[C@H]1CN(C2CCN(Cc3ccc(C)o3)CC2)[C@H]1c1ccncc1",
    "RP-LC retention time (s)": 588
  },
  {
    "Compound": "COc1ccc(CNC(=O)c2ccc(CN3CC(=O)N4CCCCC4C3=O)cc2)cc1 (stereo not given)",
    "RP-LC retention time (s)": 683
  },
  {
    "Compound": "c1ccc(CCCCN2CCC(c3ccccc3)CC2)cc1",
    "RP-LC retention time (s)": 851
  },
  {
    "Compound": "COCCN(CC1(C)CCOCC1)C(=O)NCc1ccc(F)cc1",
    "RP-LC retention time (s)": 752
  },
  {
    "Compound": "COc1ccccc1-c1nc(Cn2nnc(-c3nc(-c4ccncc4)no3)c2C)c(C)o1",
    "RP-LC retention time (s)": 872
  },
  {
    "Compound": "O=C(Nc1nccnc1C(=O)NCCCN1CCOCC1)c1ccccc1",
    "RP-LC retention time (s)": 551
  },
  {
    "Compound": "Cc1ccc2c(c1)cc(S(=O)(=O)c1ccccc1)c(=O)n2CC(=O)NCC1CCCO1 (stereo not given)",
    "RP-LC retention time (s)": 765
  },
  {
    "Compound": "CCCNC(=O)CCc1nc2ccccc2n(CC(=O)NCc2ccc(C)cc2)c1=O",
    "RP-LC retention time (s)": 786
  },
  {
    "Compound": "COC(=O)c1cccc(NC(=O)N2CCSc3ncccc32)c1",
    "RP-LC retention time (s)": 739
  },
  {
    "Compound": "O=S(=O)(c1ccc2c(c1)CCCN2)N1CCC[C@H]2CCCC[C@@H]21",
    "RP-LC retention time (s)": 1190
  }
]

---

test: gradient 5% acetonitrile 3 min, to 50% in 2 min, to 85% in 15 min, held 3 min, 100 µL/min; conditions: column: Zorbax Extend-C18 2.1 x 50 mm; eluents: water / acetonitrile, 0.1% formic acid

[
  {
    "Compound": "CSc1ccc(-c2noc(CN3C(=O)COc4ccccc43)n2)cc1",
    "RP-LC retention time": "1110 s"
  },
  {
    "Compound": "Cc1cc(N(C)C)nc(N2CCN(C(=O)c3ccc(C(C)(C)C)cc3)CC2)n1",
    "RP-LC retention time": "736 s"
  },
  {
    "Compound": "O=C(c1cccc(F)c1)N1CCN(S(=O)(=O)c2cc3c4c(c2)CCC(=O)N4CCC3)CC1",
    "RP-LC retention time": "784 s"
  },
  {
    "Compound": "CCCCC(=O)Nc1ccc(SCc2nnc(-c3ccc4c(c3)OCO4)o2)cc1",
    "RP-LC retention time": "948 s"
  },
  {
    "Compound": "Cn1nnc2cc(-c3noc(C4CC(=O)N(c5ccccc5)C4)n3)ccc21 (stereo not drawn)",
    "RP-LC retention time": "788 s"
  },
  {
    "Compound": "CC(CCc1ccccc1)NC(=O)C1CCN(S(C)(=O)=O)c2cc(Cl)ccc2O1 (stereo not drawn)",
    "RP-LC retention time": "1070 s"
  },
  {
    "Compound": "Cc1nn2c(S(=O)(=O)N3CCC4(CC3)OCCO4)c(C)nc2s1",
    "RP-LC retention time": "692 s"
  },
  {
    "Compound": "CC(C)C(NC(=O)c1ccc(CN2C(=O)C3CCCN3C(=O)c3ccccc32)cc1)c1cccs1 (stereo not drawn)",
    "RP-LC retention time": "857 s"
  },
  {
    "Compound": "Cc1ccc(NS(=O)(=O)c2ccc3c(c2)C(=O)N(C)c2ncccc2O3)c(C)c1",
    "RP-LC retention time": "986 s"
  },
  {
    "Compound": "Cc1ccc(-c2nnc(-c3nc(NCc4cccnc4)c4ccccc4n3)o2)cc1",
    "RP-LC retention time": "676 s"
  },
  {
    "Compound": "Cc1c(C(=O)NC(C)C)cnn1-c1ccc(-c2nc(C(C)(C)C)no2)cn1",
    "RP-LC retention time": "1020 s"
  },
  {
    "Compound": "O=C(NC1CCCCC1)NC1CCN(C(=O)C2CCC2)C1 (stereo not drawn)",
    "RP-LC retention time": "680 s"
  },
  {
    "Compound": "Cc1ccc(C(O)Cn2ccn3nc(-c4ccc(F)cc4)cc3c2=O)cc1 (stereo not drawn)",
    "RP-LC retention time": "966 s"
  },
  {
    "Compound": "Cc1cccc(-n2nnc(C(=O)O)c2-c2ccncc2)c1",
    "RP-LC retention time": "620 s"
  },
  {
    "Compound": "Cc1cc(NC(=O)CSc2nc3ccccc3o2)sn1",
    "RP-LC retention time": "726 s"
  },
  {
    "Compound": "CCCc1cc(N2CCN(C(=O)C3CCC3)CC2)nc2nnc(C)n12",
    "RP-LC retention time": "614 s"
  },
  {
    "Compound": "CCn1c(=O)c2ccn(CC(=O)Nc3cc(C)ccn3)c2n(CC)c1=O",
    "RP-LC retention time": "644 s"
  },
  {
    "Compound": "COc1ccccc1NC(=O)c1c(O)c2cccnc2n(-c2cccc(F)c2)c1=O",
    "RP-LC retention time": "1210 s"
  },
  {
    "Compound": "CCOC(=O)CNC(=O)NCc1cccn1Cc1ccc(F)cc1",
    "RP-LC retention time": "772 s"
  },
  {
    "Compound": "O=C(NCc1ccc(F)cc1F)c1sc2ncccc2c1-n1cccc1",
    "RP-LC retention time": "1020 s"
  },
  {
    "Compound": "COc1ccc(Cl)cc1NC(=O)c1cc(C)n2nc(C)cc2n1",
    "RP-LC retention time": "1160 s"
  },
  {
    "Compound": "O=C(NCC(c1ccsc1)N1CCc2ccccc2C1)C(=O)Nc1ccon1 (stereo not drawn)",
    "RP-LC retention time": "572 s"
  },
  {
    "Compound": "CCn1cnc2cc(-c3noc(-c4cc(OC)c(OC)c(OC)c4)n3)ccc21",
    "RP-LC retention time": "732 s"
  },
  {
    "Compound": "CC(NC(=O)C1c2ccccc2CCN1C(=O)C1CC1)c1ccc(F)cc1 (stereo not drawn)",
    "RP-LC retention time": "875 s"
  },
  {
    "Compound": "CCCS(=O)(=O)N1CC[C@@H]2CN(Cc3ccccc3)[C@@H]2C1",
    "RP-LC retention time": "607 s"
  },
  {
    "Compound": "COc1ccc(-c2nc(NC(=O)CSc3ccccc3)sc2CCC(=O)O)cc1",
    "RP-LC retention time": "852 s"
  },
  {
    "Compound": "COc1ccc(C2CC(=O)N(CC(=O)N3CCOCC3)c3ccccc3S2)cc1OC (stereo not drawn)",
    "RP-LC retention time": "736 s"
  },
  {
    "Compound": "CCC1Oc2ccc(S(=O)(=O)N3CCC(C(=O)NC4CCCCCC4)CC3)cc2NC1=O (stereo not drawn)",
    "RP-LC retention time": "951 s"
  },
  {
    "Compound": "O=C(Nc1sc2c(c1C(c1ccccn1)N1CCN(c3ccccn3)CC1)CCCC2)c1ccco1 (stereo not drawn)",
    "RP-LC retention time": "775 s"
  },
  {
    "Compound": "COc1ccc(S(=O)(=O)N2CCC(CN3CCC(C)CC3)CC2)cc1",
    "RP-LC retention time": "655 s"
  },
  {
    "Compound": "Cc1sc(NC(=O)c2ccc(F)cc2)nc1-c1ccc2c(c1)NC(=O)C(C)O2 (stereo not drawn)",
    "RP-LC retention time": "935 s"
  },
  {
    "Compound": "Cc1ccc(C)c(CSc2nnc3c(S(=O)(=O)N4CCCC4)cccn23)c1",
    "RP-LC retention time": "893 s"
  },
  {
    "Compound": "Cc1cccc2nnc(N3CCCC(C(=O)N4CCN(C5CCCCC5)CC4)C3)n12 (stereo not drawn)",
    "RP-LC retention time": "570 s"
  },
  {
    "Compound": "COc1ccc(Cl)cc1NC(=O)N1CCN(c2cc(C)nc(Nc3ccc(C)cc3)n2)CC1",
    "RP-LC retention time": "798 s"
  },
  {
    "Compound": "Cn1cnc(S(=O)(=O)N2CCC(C(=O)Nc3cccc(Br)c3)CC2)c1",
    "RP-LC retention time": "741 s"
  },
  {
    "Compound": "CC(C)N1CCn2c(nc3cc(C(=O)NCc4ccc(Cl)cc4)ccc32)C1=O",
    "RP-LC retention time": "741 s"
  },
  {
    "Compound": "Clc1ccc(-c2nc(-c3ccc4c(c3)ncn4CCN3CCOCC3)no2)cc1",
    "RP-LC retention time": "683 s"
  },
  {
    "Compound": "CCN1c2ccc(C)cc2C(=O)NC12CCN(C(=O)c1cccc(C)c1)CC2",
    "RP-LC retention time": "849 s"
  }
]
